Hello, the source for this data is ChEMBL document CHEMBL1137376, in case you need it.

- Tested On: Angiotensin II receptor (AT-1) type-1 (Rattus norvegicus, UniProt P29089+P25095)
- Experimental Details: Displacement of [125I]Ang2 from AT1 receptor in rat liver membrane
- Assay type: cell membranes
Non-standard residues stand in square brackets, D forms with d. Residues, ends and D or L forms follow the SMILES beside them. Phe(4-NH2) = Nc1ccc(C[C@H](N)C(=O)O)cc1

{"Compound": "CC[C@H](C)[C@H](NC(=O)[C@H](Cc1ccc(O)cc1)NC(=O)[C@@H](NC(=O)[C@H](CCCN=C(N)N)NC(=O)[C@@H](N)CC(=O)O)C(C)C)C(=O)N[C@@H](Cc1ccc(N)cc1)C(=O)N1CCC[C@H]1C(=O)N[C@@H](Cc1ccccc1)C(=O)O (H-DRVYI[Phe(4-NH2)]PF-OH)", "Tested On": "Angiotensin II receptor (AT-1) type-1 (Rattus norvegicus, UniProt P29089+P25095)", "Unit String": "µM", "Modifier Sign": ">", "Ki": 10}
{"Compound": "CC[C@H](C)[C@@H]1Nc2c(Cc3ccc(O)cc3)cc(NC(=O)[C@H](CCCN=C(N)N)NC(=O)[C@@H](N)CC(=O)O)cc2CN(CC(=O)N2CCC[C@H]2C(=O)N[C@@H](Cc2ccccc2)C(=O)O)C1=O", "Tested On": "Angiotensin II receptor (AT-1) type-1 (Rattus norvegicus, UniProt P29089+P25095)", "Unit String": "µM", "Modifier Sign": "=", "Ki": 2.108}
{"Compound": "CC[C@H](C)[C@@H]1Nc2c(Cc3ccc(O)cc3)cc(NC(=O)[C@H](CCCN=C(N)N)NC(=O)[C@@H](N)CC(=O)O)cc2CN(CC(=O)N[C@@H](Cc2c[nH]cn2)C(=O)N2CCC[C@H]2C(=O)N[C@@H](Cc2ccccc2)C(=O)O)C1=O", "Tested On": "Angiotensin II receptor (AT-1) type-1 (Rattus norvegicus, UniProt P29089+P25095)", "Unit String": "µM", "Modifier Sign": "=", "Ki": 1.668}
{"Compound": "CC[C@H](C)[C@@H]1Nc2c(Cc3ccc(O)cc3)cc(NC(=O)[C@@H](NC(=O)[C@H](CCCN=C(N)N)NC(=O)[C@@H](N)CC(=O)O)C(C)C)cc2CN(CC(=O)N[C@@H](Cc2c[nH]cn2)C(=O)N2CCC[C@H]2C(=O)N[C@@H](Cc2ccccc2)C(=O)O)C1=O", "Tested On": "Angiotensin II receptor (AT-1) type-1 (Rattus norvegicus, UniProt P29089+P25095)", "Unit String": "µM", "Modifier Sign": "=", "Ki": 0.0149}
